- assay-system: Cyp2C8 (Homo sapiens, UniProt P10632)
- Construct: host or cells: insect cells (named in the general description as the expression system for P450 cDNAs)
- Sequence (P10632 whole entry): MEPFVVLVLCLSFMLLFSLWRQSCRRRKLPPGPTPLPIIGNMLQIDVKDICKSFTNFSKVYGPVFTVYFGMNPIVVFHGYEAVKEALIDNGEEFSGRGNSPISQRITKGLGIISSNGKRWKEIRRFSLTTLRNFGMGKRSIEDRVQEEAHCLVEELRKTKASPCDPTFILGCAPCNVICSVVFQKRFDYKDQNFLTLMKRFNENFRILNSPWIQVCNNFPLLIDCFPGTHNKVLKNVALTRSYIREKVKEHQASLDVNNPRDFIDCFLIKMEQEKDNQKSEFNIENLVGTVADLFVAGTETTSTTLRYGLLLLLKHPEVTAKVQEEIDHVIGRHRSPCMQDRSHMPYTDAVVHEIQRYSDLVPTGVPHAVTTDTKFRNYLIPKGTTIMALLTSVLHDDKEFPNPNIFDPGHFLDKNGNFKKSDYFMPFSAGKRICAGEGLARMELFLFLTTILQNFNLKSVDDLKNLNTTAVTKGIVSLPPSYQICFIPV
- assay-method-text: CyP450-Inhibition, recombinant Cytochrome P450 isoenzymes, fluorometric assay
- Assay type: in vitro ADME
- stated-conditions: recombinant CyP 450 enzyme, fluorescence-labelled substrate
Listed here are molecules together with their documented IC50.

{"columns": ["molecule", "assay-system", "IC50"],
 "data": [
  ["CCc1ccc(Nc2nnc(Cc3ccncc3)c3ccccc23)cc1Br [WO 00/59509 (Ex. 14 q), reference compound]", "Cyp2C8 (Homo sapiens, UniProt P10632)", "5 µM"]
]}

Task: Supply IC50 value. Item: CCc1ccc(Nc2nnc(Cc3ccc(=O)[nH]c3)c3ccccc23)cc1Br [Ex. 8]
Result: > 10 µM

###

- assay-system: Cyp3A4 (Homo sapiens)
- Construct: host or cells: insect cells (named in the general description as the expression system for P450 cDNAs)
- Sequence (P08684 whole entry): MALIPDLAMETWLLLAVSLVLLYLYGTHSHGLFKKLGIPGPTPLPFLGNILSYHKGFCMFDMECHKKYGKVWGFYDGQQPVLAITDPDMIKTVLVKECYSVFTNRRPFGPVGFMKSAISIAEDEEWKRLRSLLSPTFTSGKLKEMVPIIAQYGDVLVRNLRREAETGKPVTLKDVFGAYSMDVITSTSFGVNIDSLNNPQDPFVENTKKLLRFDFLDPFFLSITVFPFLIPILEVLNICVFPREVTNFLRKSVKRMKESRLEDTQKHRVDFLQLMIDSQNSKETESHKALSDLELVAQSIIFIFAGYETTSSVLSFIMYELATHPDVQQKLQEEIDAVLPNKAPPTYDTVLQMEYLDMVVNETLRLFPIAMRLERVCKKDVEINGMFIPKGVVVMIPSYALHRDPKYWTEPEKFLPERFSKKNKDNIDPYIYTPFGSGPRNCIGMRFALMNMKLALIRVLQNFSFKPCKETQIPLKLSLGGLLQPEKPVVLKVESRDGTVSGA
- assay-method-text: CyP450-Inhibition, recombinant Cytochrome P450 isoenzymes, fluorometric assay
- Type: in vitro ADME
- stated-conditions: recombinant CyP 450 enzyme, fluorescence-labelled substrate
measured-parameter: pIC50
Please express pIC50 as -log10 of the molar concentration.

Task: Using known records, supply pIC50 for CCc1ccc(Nc2nnc(Cc3ccc(=O)[nH]c3)c3ccccc23)cc1Br
Result: 5.55
